These data points were gathered from patent US20170008955A1.

# experimental-system: T1, cSNK:BSA conjugate (bovine, head-to-tail cyclized; conjugated to BSA carrier)
# T1 construct: also called BSA-cSNK
# T1 sequence (P02769 25-607 limits assumed): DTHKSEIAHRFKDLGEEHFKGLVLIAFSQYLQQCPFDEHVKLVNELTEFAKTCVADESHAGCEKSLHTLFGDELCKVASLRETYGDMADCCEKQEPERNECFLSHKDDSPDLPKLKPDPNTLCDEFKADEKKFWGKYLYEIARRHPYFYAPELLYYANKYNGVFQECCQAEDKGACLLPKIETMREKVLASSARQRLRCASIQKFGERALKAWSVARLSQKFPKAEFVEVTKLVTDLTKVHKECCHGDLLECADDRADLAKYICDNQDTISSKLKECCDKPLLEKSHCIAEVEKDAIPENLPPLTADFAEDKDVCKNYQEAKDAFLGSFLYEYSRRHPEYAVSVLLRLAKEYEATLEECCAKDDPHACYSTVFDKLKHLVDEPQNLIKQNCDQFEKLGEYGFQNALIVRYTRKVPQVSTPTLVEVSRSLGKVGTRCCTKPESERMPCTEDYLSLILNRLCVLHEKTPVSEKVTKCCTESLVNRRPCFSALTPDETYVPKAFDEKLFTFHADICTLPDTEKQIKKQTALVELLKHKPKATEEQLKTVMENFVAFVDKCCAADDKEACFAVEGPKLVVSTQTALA
# run-description: BLI 2:1 fit, site 2 (KD2); 50 nM row
assay-endpoint: Kd (nM)

>>> number("hu5E3-IgG1 (antibody, V domains shown, human IgG1/kappa; also called humanized 5E3 IgG1; IHA variant) VH: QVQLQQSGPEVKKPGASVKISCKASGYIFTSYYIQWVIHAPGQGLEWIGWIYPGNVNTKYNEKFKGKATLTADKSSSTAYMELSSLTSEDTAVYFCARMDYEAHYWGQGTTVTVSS VL: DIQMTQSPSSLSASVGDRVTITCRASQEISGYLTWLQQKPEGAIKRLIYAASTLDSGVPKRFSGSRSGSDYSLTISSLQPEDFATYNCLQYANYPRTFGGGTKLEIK")
1.82
>>> number("hu5E3-IgG4 (antibody, V domains shown, human IgG4/kappa; also called humanized 5E3 IgG4) VH: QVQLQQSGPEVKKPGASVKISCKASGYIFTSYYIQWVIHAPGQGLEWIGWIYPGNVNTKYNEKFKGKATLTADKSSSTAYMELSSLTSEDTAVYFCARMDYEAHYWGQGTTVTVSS VL: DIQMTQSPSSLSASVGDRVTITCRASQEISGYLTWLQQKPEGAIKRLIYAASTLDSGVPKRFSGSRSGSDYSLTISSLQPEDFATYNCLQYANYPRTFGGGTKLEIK")
3.04
>>> number("hu5E3-IgG2 (antibody, V domains shown, human IgG2/kappa; also called humanized 5E3 IgG2) VH: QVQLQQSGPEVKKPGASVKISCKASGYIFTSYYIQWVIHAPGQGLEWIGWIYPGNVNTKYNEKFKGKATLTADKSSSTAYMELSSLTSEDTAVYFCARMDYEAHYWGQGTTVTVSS VL: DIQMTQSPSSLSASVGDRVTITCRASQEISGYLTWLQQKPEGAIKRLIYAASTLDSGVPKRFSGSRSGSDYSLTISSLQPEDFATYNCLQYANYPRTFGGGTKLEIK")
6.39
>>> number("rehu5E3-IgG4 (antibody, V domains shown, human IgG4/kappa; also called IgG4 rehu version) VH: QVQLQQSGPEVVKPGASVKISCKASGYIFTSYYIQWVIHAPGQGLEWIGWIYPGNVNTKYNEKFKGKATLTADKSSSTAYMELSSLRSEDSAVYFCARMDYEAHYWGQGTLVTVSS VL: DIQMTQSPSSLSASLGDRVTLTCRASQEISGYLTWLQQKPEKAIKRLIYAASTLDSGVPKRFSGSRSGSDYTLTISSLQPEDFADYNCLQYANYPRTFGGGTKLEIK")
3.94
